Just for reference, patent US20240116985A1 is where these values come from.

RUN DESCRIPTION: CHI Log D procedure
Format: physicochemical
RUN PARAMETERS: pH 7.4, CHI Log D
PROPERTY MEASURED: chromatographic logD

MOLECULE	REPORTED MEASUREMENT
CC(=O)N1CCC[C@]12CC=CCCCC1(CCCC=CCCCOC(=O)N3CC[C@@](C(=O)N[C@@H](Cc4ccsc4)C(=O)N[C@@H](Cc4csc5ccccc45)C(=O)N[C@@H](CCC(N)=O)C(N)=O)(C3)NC(=O)[C@H](CCO)NC(=O)[C@H](Cc3ccccc3)NC(=O)[C@H](C)NC(=O)[C@H](C)NC(=O)[C@H](CC(=O)O)NC(=O)[C@H](CC(=O)O)NC1=O)NC(=O)[C@H](CC(C)(C)C)NC(=O)[C@H](CC(=O)O)NC2=O (stereo partly drawn)	2.03
CC(=O)N1CCC[C@]12CC=CCCCC1(CCCC=CCCCOC(=O)N3CC[C@@](C(=O)N[C@@H](Cc4ccccc4C)C(=O)N[C@@H](Cc4csc5ccccc45)C(=O)N[C@@H](Cc4c[nH]cn4)C(N)=O)(C3)NC(=O)[C@H](CC(N)=O)NC(=O)[C@H](Cc3ccccc3)NC(=O)[C@H](C)NC(=O)[C@H](C)NC(=O)[C@H](CC(=O)O)NC(=O)[C@H](CC(=O)O)NC1=O)NC(=O)[C@H](CC(C)(C)C)NC(=O)[C@H](CC(=O)O)NC2=O (stereo partly drawn)	2.21
CC(=O)N1CCC[C@]12CC=CCCCC1(CCCC=CCCCOC(=O)N3CC[C@@](C(=O)N[C@@H](Cc4ccsc4)C(=O)N[C@@H](Cc4csc5ccccc45)C(=O)N[C@@H](CCC(N)=O)C(N)=O)(C3)NC(=O)[C@H](CC(N)=O)NC(=O)[C@H](Cc3ccccc3)NC(=O)[C@H](CCCCNC(=O)CN3CCN(C)CC3)NC(=O)[C@H](C)NC(=O)[C@H](CC(=O)O)NC(=O)[C@H](CC(=O)O)NC1=O)NC(=O)[C@H](CC(C)(C)C)NC(=O)[C@H](CC(=O)O)NC2=O (stereo partly drawn)	1.37
